- Subject Of Test: recombinant human GST-SYK (Homo sapiens, UniProt P43405)
- Construct: purchased Carna Biosciences 08-176
- Run Description: Homogeneous Time-Resolved Fluorescence (HTRF) assay for the recombinant human Syk enzyme
- Format: biochemical
- Condition Notes: GST-hSYK 5 pM, ATP 25 μM, 10-dose titration 10 μM to 0.508 nM; read-out: rhSYK Activity (IC50 rating)
- Procedure: Homogeneous Time-Resolved Fluorescence (HTRF) Assay for the Recombinant Human Syk Enzyme A recombinant GST-hSYK fusion protein was used to measure potency of compounds to inhibit human Syk activity. […] Final volume of the reaction was 10 μL. Phosphorylation of the peptide was allowed to proceed for 45 minutes at room temperature. […] The resulting HTRF signal was measured after 30 minutes on an EnVision (Perkin-Elmer) reader using a time-resolved fluorescence protocol.
pIC50: −log10 of the molar value.
Each item that follows carries a reported pIC50.

Cc1cc(C)nc(Nc2cc(NS(=O)(=O)CCN)cnc2C(N)=O)c1	6.00 to 7.00

Param item = NC(=O)c1ncc(N[C@@H]2CCCC[C@@H]2N)cc1Nc1ccn(-c2ccc(F)cc2)n1 ; retrieve measured pIC50.
> 8.00

Param item = Cc1cc(OCc2ccccc2)cc(Nc2cc(N[C@@H]3CCCC[C@@H]3N)cnc2C(N)=O)n1 ; retrieve measured pIC50.
> 8.00

Param item = Cc1cc(-n2ccnn2)cc(Nc2cc(N[C@@H]3CCCC[C@@H]3N)cnc2C(N)=O)n1 ; retrieve measured pIC50.
> 8.00

Param item = Cc1cc(C(=O)N(C)C)cc(Nc2cc(N[C@@H]3CCCC[C@@H]3N)cnc2C(N)=O)n1 ; retrieve measured pIC50.
7.00 to 8.00

Param item = NC(=O)c1ncc(N[C@H]2[C@@H](N)CCCC2(F)F)cc1Nc1cccc(-n2nccn2)n1 ; retrieve measured pIC50.
> 8.00

Param item = Cc1cc(C)nc(Nc2cc(NCC(N)CO)cnc2C(N)=O)c1 (centres unmarked) ; retrieve measured pIC50.
7.00 to 8.00

Param item = Cc1cc(Cl)cc(Nc2cc(N[C@@H]3CCCC[C@@H]3N)cnc2C(N)=O)n1 ; retrieve measured pIC50.
> 8.00

---

Each item that follows carries a reported pIC50.
- Subject Of Test: recombinant human GST-SYK (Homo sapiens)
- Construct: purchased Carna Biosciences 08-176
- Run Description: Homogeneous Time-Resolved Fluorescence (HTRF) assay for the recombinant human Syk enzyme
- Assay type: biochemical
- Condition Notes: GST-hSYK 5 pM, ATP 25 μM, 10-dose titration 10 μM to 0.508 nM; read-out: rhSYK Activity (IC50 rating)
pIC50: −log10 of the molar value.

Worked examples follow.
Cc1nc(Nc2cc(N[C@@H]3CCCC[C@@H]3N)cnc2C(N)=O)ccc1-c1cnn(C)c1 [Example 1.11]	> 8.00
Cc1cc(C)nc(Nc2cc(NC(CN)c3ccccc3)cnc2C(N)=O)c1 (centres unmarked) [Example 1.23]	7.00 to 8.00
COC[C@H](N)CNc1cnc(C(N)=O)c(Nc2ccn(-c3ccc(F)cc3)n2)c1 [Example 1.99]	> 8.00
Cc1cc(C)nc(Nc2cc(N[C@H]3[C@@H](N)CCCC3(F)F)cnc2C(N)=O)c1 [Example 1.47]	> 8.00
Cc1cc(C)nc(Nc2cc(NCC(N)Cc3ccccc3)cnc2C(N)=O)c1 (centres unmarked) [Example 2.12]	7.00 to 8.00

Param item = COc1cc(C)nc(Nc2cc(N[C@@H]3CCOC[C@@H]3N)cnc2C(N)=O)c1 [Example 1.131] ; retrieve measured pIC50.
> 8.00

Param item = Cc1nc(Nc2cc(N[C@@H]3CCCC[C@@H]3N)cnc2C(N)=O)ccc1-c1ccccc1 [Example 3.2] ; retrieve measured pIC50.
> 8.00

Param item = Cc1nc(Nc2cc(N[C@@H]3CCCC[C@@H]3N)cnc2C(N)=O)ccc1-c1ccc(-c2ncco2)cc1 [Example 3.30] ; retrieve measured pIC50.
> 8.00
